Test: Enzymatic kinetic measurements of purified proteins with compound A as substrate
Assay type: biochemical
Conditions: purified protein, compound A 0-1000 μM as substrate
measured endpoint: Kcat (S^−1)
Express the result in S^−1 but write the number alone.

Q: Quick one: Kcat of SEQ ID NO: 42: RdpA mutant L82H + V187L + F182W + G103L (protein) MHAALSPLSQRFERIAVQPLTGVLGAEITGVDLREPLDDSTWNEILDAFHTYQVIYFPGQAITNEQHIAFSRRFGPVDPVPHLKSIEGYPEVQMIRREANESLRVIGDDWHTDSTFLDAPPAAVVMRAIDVPEHGGDTGFLSMYTAWETLSPTMQATIEGLNVVHSATRVFGSLYQAQNRRWSNTSLKVMDVDAGDRETVHPLVVTHPGSGRKGLYVNQVYCQRIEGMTDAESKPLLQFLYEHATRFDFTCRVRWKKDQVLVWDNLCTMHRAVPDYAGKFRYLTRTTVGGVRPAR ?
Ans: 0.86
